This section presents compounds with their documented Maximum enhancing activity: Concentration by weight values.
Biological target: Glu-plg (Homo sapiens, UniProt P00747)
Construct: 0.1 mM VLK-pNA, 50 nM Glu-plg and 50 U/ml u-PA
Sequence (P00747 20-810 limits assumed): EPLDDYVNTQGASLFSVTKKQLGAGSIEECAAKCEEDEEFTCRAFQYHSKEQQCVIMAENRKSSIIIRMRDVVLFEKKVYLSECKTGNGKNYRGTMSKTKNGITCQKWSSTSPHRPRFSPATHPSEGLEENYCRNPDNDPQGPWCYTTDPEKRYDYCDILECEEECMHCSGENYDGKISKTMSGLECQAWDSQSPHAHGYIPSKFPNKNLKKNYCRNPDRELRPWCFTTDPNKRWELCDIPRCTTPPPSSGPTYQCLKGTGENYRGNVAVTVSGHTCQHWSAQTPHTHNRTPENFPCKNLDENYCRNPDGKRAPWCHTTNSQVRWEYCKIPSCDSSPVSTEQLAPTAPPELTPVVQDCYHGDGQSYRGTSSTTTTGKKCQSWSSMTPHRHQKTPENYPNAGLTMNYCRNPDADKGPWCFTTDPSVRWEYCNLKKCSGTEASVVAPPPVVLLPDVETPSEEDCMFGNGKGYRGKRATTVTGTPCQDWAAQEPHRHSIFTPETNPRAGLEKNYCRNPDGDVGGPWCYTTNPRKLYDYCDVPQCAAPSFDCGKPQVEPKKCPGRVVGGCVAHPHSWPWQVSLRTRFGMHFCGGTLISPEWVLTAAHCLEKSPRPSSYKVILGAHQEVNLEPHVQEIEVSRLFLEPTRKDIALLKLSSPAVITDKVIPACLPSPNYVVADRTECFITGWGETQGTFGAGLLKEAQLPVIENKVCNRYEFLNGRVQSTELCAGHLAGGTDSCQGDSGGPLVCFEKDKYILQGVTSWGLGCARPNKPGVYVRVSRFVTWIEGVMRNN
Assay: Plasminogen (plg) activation enhancing activity by urokinase catalysis, VLK-pNA chromogenic assay (Example 30, Table 24)
Type: biochemical
Details: concentration at which enhancement of plasminogen activation reaches the maximum
I only need the number, in µg/mL, no unit after it.

Before answering, review these 4 worked examples.
CC(C)=CCC/C(C)=C/CC[C@]1(C)Oc2c(c(O)cc3c2CN(CCC[C@@H](C(=O)O)N2Cc4c(cc(O)c5c4O[C@@](C)(CC/C=C(\C)CCC=C(C)C)[C@@H](O)C5)C2=O)C3=O)C[C@@H]1O [Orniplabin, reference compound]: 78
CC(C)=CCC/C(C)=C/CC[C@]1(C)Oc2c(c(O)cc3c2CN([C@H](C(=O)O)c2ccccc2)C3=O)C[C@@H]1O [Compound I-20]: 150
CC(C)=CCC/C(C)=C/CC[C@]1(C)Oc2c(c(O)cc3c2CN(c2ccc(C(=O)O)cc2)C3=O)C[C@@H]1O [Compound I-2]: 81
CC(C)=CCC/C(C)=C/CC[C@]1(C)Oc2c(c(O)cc3c2CN(c2cccc(C(=O)O)c2O)C3=O)C[C@@H]1O [Compound I-8]: 52

Query: Would you kindly share the measured Maximum enhancing activity: Concentration by weight for CC(C)=CCC/C(C)=C/CC[C@]1(C)Oc2c(c(O)cc3c2CN([C@H](C(=O)O)c2cccc(O)c2)C3=O)C[C@@H]1O (racemic) [Compound I-25] ?
Response: 215

Query: Would you kindly share the measured Maximum enhancing activity: Concentration by weight for CC(C)=CCC/C(C)=C/CC[C@]1(C)Oc2c(c(O)cc3c2CN(c2ccc(C(=O)O)cc2O)C3=O)C[C@@H]1O [Compound I-6] ?
Response: 151
